# measured on: human MCH-1R (human, UniProt Q99705 1-353)
# Sequence (Q99705 whole entry, form in doubt): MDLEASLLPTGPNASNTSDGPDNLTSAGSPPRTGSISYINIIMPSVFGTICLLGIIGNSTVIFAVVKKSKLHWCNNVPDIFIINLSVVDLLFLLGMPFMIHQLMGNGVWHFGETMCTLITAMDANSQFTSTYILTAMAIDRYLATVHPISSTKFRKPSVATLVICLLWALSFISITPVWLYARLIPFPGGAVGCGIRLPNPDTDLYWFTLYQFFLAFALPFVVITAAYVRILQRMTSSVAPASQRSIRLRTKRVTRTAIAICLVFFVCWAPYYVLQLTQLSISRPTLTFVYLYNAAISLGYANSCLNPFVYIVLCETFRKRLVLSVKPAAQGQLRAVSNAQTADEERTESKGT
# procedure summary: cell-based or functional assay
Bridges are numbered along the chain shown (N, C = ends). [ ]: non-standard residue; d: D form. Nle = CCCC[C@H](N)C(=O)O
parameter measured: EC50 (aequorin functional assay)

binder	result
Ac-RCMLG[Nle]VYRPC-NH2 (disulfide 2-11 (inferred), also called Nle^11) [SEQ. ID. NO. 26]	> 1 µM
RCMLXRVYRPC (Phg^10 (phenylglycine), also called Phg^10) [SEQ. ID. NO. 12]	> 10 µM

INPUT: Item under review: Ac-RCMLGAVYRPC-NH2 (disulfide 2-11; SMILES CSCC[C@@H]1NC(=O)[C@@H](NC(=O)[C@H](CCCNC(=N)N)NC(C)=O)CSSC[C@@H](C(N)=O)NC(=O)[C@@H]2CCCN2C(=O)[C@H](CCCNC(=N)N)NC(=O)[C@H](Cc2ccc(O)cc2)NC(=O)[C@H](C(C)C)NC(=O)[C@H](C)NC(=O)CNC(=O)[C@H](CC(C)C)NC1=O, also called Ala^11) [SEQ. ID. NO. 23] . Reported EC50 (aequorin functional assay)?
OUTPUT: > 10 µM
